Target: T1, human LRRC15 extracellular domain with C-terminal His tag (human, UniProt Q8TF66 22-538)
T1 construct: Recombinant, made in HEK293; the entry holds the extracellular domain and the His tag; SPR analyte; also called TPP-1545; hLRRC15 CT-His
T1 sequence: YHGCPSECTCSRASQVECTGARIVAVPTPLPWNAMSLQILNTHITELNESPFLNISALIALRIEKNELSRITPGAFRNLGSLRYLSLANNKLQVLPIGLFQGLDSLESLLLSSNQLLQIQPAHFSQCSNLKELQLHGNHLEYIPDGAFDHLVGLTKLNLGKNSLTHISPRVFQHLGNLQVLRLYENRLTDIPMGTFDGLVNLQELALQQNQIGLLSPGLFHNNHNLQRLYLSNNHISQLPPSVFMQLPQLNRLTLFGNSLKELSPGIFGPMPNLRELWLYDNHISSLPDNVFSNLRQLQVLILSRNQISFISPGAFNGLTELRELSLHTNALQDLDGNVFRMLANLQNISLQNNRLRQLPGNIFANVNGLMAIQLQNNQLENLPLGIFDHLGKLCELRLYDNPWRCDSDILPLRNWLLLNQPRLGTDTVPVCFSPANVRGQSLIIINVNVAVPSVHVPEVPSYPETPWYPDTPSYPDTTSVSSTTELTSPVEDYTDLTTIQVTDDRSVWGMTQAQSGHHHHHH
Test: SPR at 10-37°C (Example 3)
// Temperature dependent loss in binding affinity lookup, one value per entry
Reply with just the number (in fold).

(Q) Temperature dependent loss in binding affinity for TPP-14389 (antibody, human IgG1, kappa, V domains shown, also called 13612-rec02-hIgG1Kappa) VH: EVQLLESGGGLVQPGGSLRLSCAASGFTFSGYMMSWVRQAPGKGLEWVSGIYPSPGYTYYADSVKGRFTISRDNSKNTLYLQMNSLRAEDTAVYYCAREKASDLFGSYSEALDYWGQGTLVTVSS VL: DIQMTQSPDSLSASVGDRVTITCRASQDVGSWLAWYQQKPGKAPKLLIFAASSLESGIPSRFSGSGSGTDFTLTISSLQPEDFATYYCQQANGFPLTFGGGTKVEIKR ?
(A) 108

(Q) Next record, please: TPP-17421 (antibody, human IgG1, kappa, V domains shown, also called 438H-M306-C11-hIgG1Kappa) VH: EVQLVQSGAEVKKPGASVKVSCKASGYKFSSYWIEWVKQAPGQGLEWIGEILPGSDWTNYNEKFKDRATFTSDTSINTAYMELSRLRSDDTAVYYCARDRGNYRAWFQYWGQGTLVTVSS VL: DIQMTQSPSSLSASVGDRVTITCRASQSISSYLNWYQQKPGGAPKFLIYYASSLQSGVPSRFSGSGSGTDYTLTISSLQPEDFATYYCQQGLELPWTFGGGTKVEIKR
(A) 5.2
